# Test system: MYB mRNA
# method_description: Gene panel canonical junction qPCR assay, decrease in CJ mRNA, Table 3
# Assay type: cell-based
# conditions_used: decrease in canonical junction (CJ) mRNA, gene panel qPCR, Table 3
measurement_label: IC50

Check out these entries, answers already filled in.
get_value(item= COc1nc2nn(C)cc2cc1NC(=O)c1c(F)cc(N2CCC(NC3CC3)CC2)c2cn(C)nc12 , readout=IC50) returns < 0.1 µM

get_value(item= CNC1CCC(Oc2ccc(C(=O)Nc3cn4cc(C)nc(C)c4n3)c3nn(C)cc23)C1 (stereo not drawn) , readout=IC50) returns > 10 µM

As a next step, examine the molecule that follows.
get_value(item= COc1c(NC(=O)c2c(F)cc(N3CCC(NC4CC4)CC3)c3cn(C)nc23)cn2cc(C)nc(C)c12 , readout=IC50) returns 1 to 10 µM

* * *

# Test system: HTT mRNA
# method_description: Splicing RT-qPCR assay (THP), Table 2A
# Assay type: cell-based
# conditions_used: Table 2A (THP), CJ mRNA decrease, read-out: HTT CJ (decrease in canonical junction mRNA, IC50)
measurement_label: IC50

get_value(item= CNC1CCN(c2ccc(C(=O)Nc3cc4cn(C)nc4cc3OC)c3nn(C)cc23)C1 (stereo not shown) [Compound 518] , readout=IC50) returns 1 to 10 µM

get_value(item= COc1cc2nn(C)cc2cc1NC(=O)c1ccc(N2CC3(CNC3)C2)c2cn(C)nc12 [Compound 506] , readout=IC50) returns 1 to 10 µM

get_value(item= Cc1cn2cc(NC(=O)c3ccc(C4CCC(NC5CC5)CC4)c4cn(C)nc34)cc(F)c2n1 (stereo not shown) [Compound 192] , readout=IC50) returns 1 to 10 µM

get_value(item= CCNC1CCN(c2ccc(C(=O)Nc3cc(Oc4ccccc4Cl)c4nc(C)cn4c3)c3nn(C)cc23)CC1 [Compound 313] , readout=IC50) returns > 10 µM

New cases:
get_value(item= Cc1cn2cc(NC(=O)c3ccc(N4CCC(NC5CC5)CC4)c4cn(C)nc34)c(OC(C)C)c2c(C)n1 [Compound 569] , readout=IC50) returns > 10 µM

get_value(item= Cc1cn2cc(NC(=O)c3ccc(N4CCC5NCCC5C4)c4cn(C)nc34)nc2c(C)n1 (stereo not shown) [Compound 531] , readout=IC50) returns > 10 µM

* * *

# System: MYB mRNA
# method_description: Splicing RT-qPCR assay, canonical (CJ) and alternative (AJ) junction mRNA, K562 cells
# Format: cell-based
# conditions_used: Homo sapiens, K562.3 cells, 24 hours, read-out: MYB AJ (AC50, increase in AJ mRNA)
Recorded AC50 by entry

Check out these entries, answers already filled in.
get_value(item= CN[C@@H]1CCN(c2ccc(C(=O)Nc3cc(F)c4nn(C)cc4c3)c3nn(C)cc23)C1 , readout=AC50) returns 100 to 1000 nM

get_value(item= Cc1cn2cc(NC(=O)c3ccc(N4CCNC(C(F)(F)F)C4)c4cn(C)nc34)cc(F)c2n1 (stereo not drawn) , readout=AC50) returns 1000 to 10000 nM

As a next step, examine the molecule that follows.
get_value(item= Cc1cn2cc(NC(=O)c3ccc(C4CNCCO4)c4[nH]cnc34)cc(F)c2n1 (stereo not drawn) , readout=AC50) returns 100 to 1000 nM
